These measurements were taken from PubChem BioAssay.

assay: probe aWnt5a binding to arrayed compounds – biochemical, biotinylated probe, 635/667 nm fluorescence, primary screen (AID 1113); details: small-molecule microarray, higher = more signal;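 further: score merges 667 nm fluorescence intensity with signal-to-noise per printed feature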
assayEndpoint: composite z-score
Returns: the value as a bare number; no unit string appended.

Returns the measured composite z-score for the input compound. Input: COC(=O)c1ccc(OC)c(/C=C\CC(CCc2ccccc2)OC(=O)c2ccncc2)c1 (stereo not drawn)
-0.25

Continue with NC(=O)[C@H]1[C@@H]2C(=O)O[C@@H](c3ccccc3)[C@@H](c3ccccc3)N2[C@@H](c2ccc(O)cc2)[C@]12C(=O)Nc1ccc(C#CC3(O)CCCCCC3)cc12
-0.12

Continue with CC(C)C[C@@H]1NC(=O)[C@@]23C(=O)N[C@@H](Cc4ccccc4)C2[C@H](C)[C@@]2(C)O[C@H]2C3/C=C/C/C=C\CNC(=O)[C@@H]2CCCN2C1=O (stereo partly drawn)
-0.124

---

target: Luciferin 4-monooxygenase (Photinus pyralis) (UniProt P08659); experiment: inhibition of purified Photinus pyralis luciferase – biochemical, luminescence, purified enzyme, 2006 set, primary screen (AID 1141); details: purified firefly luciferase, SteadyGlo luminescence, 30 min, called active from +8 up or from −8 down;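 further: cell-free assay with purified firefly luciferase at 100 ng per well in PBS; test concentration not given here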
Sequence (P08659 whole entry, looked up): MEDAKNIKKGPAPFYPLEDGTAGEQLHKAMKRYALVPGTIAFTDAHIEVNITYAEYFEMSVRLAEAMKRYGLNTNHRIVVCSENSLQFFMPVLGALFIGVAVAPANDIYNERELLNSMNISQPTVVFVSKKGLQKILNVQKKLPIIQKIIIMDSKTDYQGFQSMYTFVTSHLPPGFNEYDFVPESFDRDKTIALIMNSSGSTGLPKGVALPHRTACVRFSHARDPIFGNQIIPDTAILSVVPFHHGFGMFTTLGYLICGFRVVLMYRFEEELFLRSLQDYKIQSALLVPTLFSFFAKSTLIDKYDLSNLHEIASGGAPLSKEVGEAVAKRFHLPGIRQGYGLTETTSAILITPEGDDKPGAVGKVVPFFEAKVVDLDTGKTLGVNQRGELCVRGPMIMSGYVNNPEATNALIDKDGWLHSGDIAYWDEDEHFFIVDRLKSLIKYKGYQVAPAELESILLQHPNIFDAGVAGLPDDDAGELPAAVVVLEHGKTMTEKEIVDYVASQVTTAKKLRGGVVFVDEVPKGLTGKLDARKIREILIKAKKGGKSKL
The source made the active and inactive calls.
Please answer using one outcome listed in T = active, F = inactive

Tell me the assay call for C#CCNS(=O)(=O)N(C)C please.
F

Continue with COC(=O)[C@@]1(Cc2ccc(OC)cc2)[C@H]2c3cc(C(=O)N4CCCC4)n(Cc4ccc(C)o4)c3C[C@H]2CN1C(=O)c1ccccc1
T

Continue with C=CCC(OC(C)=O)[C@@H]1[C@@H](N(Cc2cccc3ccccc23)C(=O)c2ccc(C)cc2)c2cc(OCCCO)ccc2N1C(=O)c1ccc2ccccc2c1 (some centres undefined)
F

Continue with C[N+](C)(C)CCCCCCNC(=O)[C@@H]1C[C@@H]2C(=O)NCC(=O)N2[C@@H]1c1ccc(O)cc1
F

---

Assign composite z-score to each entry below.
biological target: Follistatin-related protein 3 (Homo sapiens) (UniProt O95633); experiment: compounds binding follistatin-related protein 3 – biochemical, small-molecule microarray, 635 nm fluorescence, primary screen (AID 1105); conditions: FSTL3 binding, higher = more signal;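 further: score merges emission near 667 nm and signal to noise per printed spot across three slides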
Sequence (O95633 whole entry, looked up): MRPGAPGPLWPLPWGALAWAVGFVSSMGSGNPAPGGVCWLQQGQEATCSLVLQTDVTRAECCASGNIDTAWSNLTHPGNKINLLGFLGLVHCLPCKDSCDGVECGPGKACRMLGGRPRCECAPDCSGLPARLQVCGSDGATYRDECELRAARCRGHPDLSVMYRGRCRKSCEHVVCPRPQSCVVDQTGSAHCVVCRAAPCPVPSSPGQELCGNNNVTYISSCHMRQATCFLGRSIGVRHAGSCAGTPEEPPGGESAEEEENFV

Under Follistatin-related protein 3 (Homo sapiens) (UniProt O95633): composite z-score value of COC(=O)[C@@]1(Cc2ccccc2)[C@H]2c3cc(C(=O)N4CCCC4)n(Cc4ccc(OC(F)(F)F)cc4)c3C[C@H]2CN1C(=O)c1ccccc1 ?
0.685

Continue with CCCc1cc2c(n1Cc1ccc(OC)cc1)C(C)C1CN(C(=O)c3ccccc3)C(C)(C(=O)OC)C21 (configuration not stated)
0.324

Continue with C=CCOC(=O)[C@@H]1[C@H]2C(=O)O[C@H](c3ccccc3)[C@H](c3ccccc3)N2[C@H](c2ccc(OCCOC(=O)[C@@H]3C[C@@H]4C(=O)N[C@@H](CCCCNC(C)=O)C(=O)N4[C@@H]3c3ccc(O)cc3)cc2)[C@@]12C(=O)Nc1ccc(I)cc12
1.35

Continue with COc1ccc(C(=O)Nc2ccc(CN3C(=O)[C@]4(O[C@H](CCn5cc([C@H](O)c6ccccc6)nn5)[C@@H]([Si](C)(C)c5ccc(OC)cc5)[C@@H]4C)c4ccccc43)cc2)cc1
-0.113

Continue with CCOC(=O)C1=CC[C@@H](c2cccc(Br)c2)N(S(=O)(=O)c2ccc(C)cc2)[C@H]1c1ccc([N+](=O)[O-])cc1
1.32

Continue with C[N+](C)(C)CCCC[C@@H]1NC(=O)[C@@H]2C[C@H](C(=O)NCCCCCNC(=O)CS)[C@H](c3cccc(OCCO)c3)N2C1=O
-0.19

Continue with COC(=O)[C@@]1(Cc2ccc(F)cc2)[C@@H]2[C@@H](CC(=O)[C@H]2CC(=O)C(=O)N2CCCC2)CN1C(=O)c1ccccc1
1.02
